tested on: E. coli W3110; test: MIC by broth microdilution; type: cell-based, Escherichia coli; conditions: relative to parent compound
experimental-readout: antimicrobial activity

As a guide, the following entries are already answered.
CN(CCNS(=O)(=O)c1cccc2cnccc12)Cc1ccc(-c2cccnc2)cc1: abolished all activity
O=C(NCCNS(=O)(=O)c1cccc2cnccc12)c1ccc(-c2cccnc2)cc1: abolished all activity
O=S(=O)(NCCNCc1ccc(-c2ccccc2)cc1)c1cccc2cnccc12: equally potent
O=S(=O)(NCCOCc1ccc(-c2cccnc2)cc1)c1cccc2cnccc12: abolished all activity

Now consider a different molecule.
**Query** Give recorded antimicrobial activity. O=S(=O)(NCCNCc1ccc(-c2ccsc2)cc1)c1cccc2cnccc12
**Result** equally potent

* * *

Would you kindly list DIC length for each of these compounds?
test system: E. coli BW25113; assay: Bacterial cytological profiling (BCP); format: cell-based, Escherichia coli; set-up: unit not given here; conditions: BCP

O=S(=O)(NC[C@H]1CC[C@@H](c2ccc(-c3ccc(F)nc3)cc2)N1)c1cccc2cnccc12: 3.253 ± 0.128
CC1(C)S[C@@H]2[C@H](NC(=O)[C@H](N)c3ccccc3)C(=O)N2[C@H]1C(=O)O [AMP, ampicillin, reference compound]: 27.774 ± 3.16
O=S(=O)(NC[C@@H]1CC[C@H](c2ccc(-c3cccnc3)cc2)N1)c1cccc2cnccc12: 11.910 ± 0.403

**Query** Give recorded DIC length. CO[C@H]1/C=C/O[C@@]2(C)Oc3c(C)c(O)c4c(O)c(c(/C=N/N5CCN(C)CC5)c(O)c4c3C2=O)NC(=O)/C(C)=C\C=C\[C@H](C)[C@H](O)[C@@H](C)[C@@H](O)[C@@H](C)[C@H](OC(C)=O)[C@@H]1C [RIF, rifampicin, reference compound]
**Result** 4.635 ± 0.073
